Test: Lactate dehydrogenase (LDH) release assay
Format: cell-based
Details: LDH: Cytotoxicity assay: EC50
pEC50: −log10 of the molar value.
endpoint-label: pEC50

1. CC(=O)N[C@@H](CCCCN=[N+]=[N-])C(=O)NCCC(=O)N[C@@H](CC(C)C)C(=O)N[C@H](C(=O)N[C@@H](Cc1ccccc1)C(=O)N[C@]1(C)CCCCCCC=CCCC[C@@](C)(C(=O)N[C@@H](CO)C(=O)N[C@@H](C)C(=O)N[C@@H](C)C(N)=O)NC(=O)[C@H](CC2CCC2)NC(=O)[C@H](CCC(N)=O)N(C)C(=O)[C@H](C)NC(=O)[C@H](Cc2c[nH]c3ccccc23)NC(=O)[C@H](Cc2ccc(O)cc2)NC(=O)[C@H](CCC(=O)O)NC1=O)[C@@H](C)O | < 4.30

From: paper PMC10786919
